Below, each of the compounds is paired with its reported % Activity (GW9508 Reference Compound) value.
study_system: human GPR120 (Homo sapiens)
Construct: host or cells: HEK293 cells co-expressing Gqi5
Sequence (Q5NUL3 1-361): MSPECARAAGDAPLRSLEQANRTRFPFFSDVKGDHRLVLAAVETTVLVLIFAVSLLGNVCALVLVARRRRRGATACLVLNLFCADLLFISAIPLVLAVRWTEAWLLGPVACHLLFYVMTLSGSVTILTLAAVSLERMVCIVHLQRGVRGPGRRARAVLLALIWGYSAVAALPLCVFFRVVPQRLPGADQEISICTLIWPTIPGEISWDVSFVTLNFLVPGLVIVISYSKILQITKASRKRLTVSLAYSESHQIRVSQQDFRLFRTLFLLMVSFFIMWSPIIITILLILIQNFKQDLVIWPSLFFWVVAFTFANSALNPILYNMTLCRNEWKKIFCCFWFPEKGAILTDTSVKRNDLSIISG
measurement_notes: Intracellular Ca2+ assay in human GPR120 stable cell line (HEK293 co-expressing Gqi5), Flexstation
Format: cell-based
test_context: % activity at 5 μM compared to the maximal activity of GW9508 at 6.7 μM (=100%); human GPR120 cells, Ca2+ fluorescence
reported_endpoint: % Activity (GW9508 Reference Compound) (%)

- compound: "CC(CCc1ccc(OCc2cc(F)cc3c2OC(C)(C)C3)cc1)C(=O)O (stereo not shown)"
  numeric_value: 98.97
- compound: "CC1(C)Cc2cc(Cl)cc(COc3c(F)cc(C4CC4CC(=O)O)cc3F)c2O1 (stereo not shown)"
  numeric_value: 116.46
- compound: "CC1(C)Cc2cccc(COc3c(F)cc(CCC(=O)O)cc3F)c2O1"
  numeric_value: 101.8
- compound: "CC(Cc1ccc(OCc2cc(F)cc3c2OC(C)(C)C3)c(F)c1)C(=O)O (stereo not shown)"
  numeric_value: 135.3906
- compound: "CC1(C)Cc2cc(F)cc(COc3ccc4c(CC(=O)O)coc4c3)c2O1"
  numeric_value: 137.39
- compound: "CC(Cc1ccc(NCc2cc(F)cc3c2OC(C)(C)C3)cc1)C(=O)O (stereo not shown)"
  numeric_value: 141.82
- compound: "[2H]C1([2H])c2cc(Cl)cc(COc3ccc(CC(C)C(=O)O)cc3F)c2OC1(C)C (stereo not shown)"
  numeric_value: 140.72
- compound: "[2H]C([2H])(C(=O)O)C([2H])([2H])c1ccc(OCc2cc(Cl)cc3c2OC(C)(C)C3)c(F)c1"
  numeric_value: 159.62
- compound: "Cc1cc(OCc2cc(F)cc3c2OC(C)(C)C3)c(C)cc1CCC(=O)O"
  numeric_value: 111.45
- compound: "CC(Cc1cc(F)c(OCc2cccc3c2CC(C)(C)O3)c(F)c1)C(=O)O (stereo not shown)"
  numeric_value: 112.6

Origin of measurements: patent US20130109734A1
